test: self-splicing fitness, log relative to wild type (ln ratio); higher = more splicing; Tetrahymena group I intron in knt gene, E. coli kanamycin selection, DiMSum; sequences stand for … in CUCUCU…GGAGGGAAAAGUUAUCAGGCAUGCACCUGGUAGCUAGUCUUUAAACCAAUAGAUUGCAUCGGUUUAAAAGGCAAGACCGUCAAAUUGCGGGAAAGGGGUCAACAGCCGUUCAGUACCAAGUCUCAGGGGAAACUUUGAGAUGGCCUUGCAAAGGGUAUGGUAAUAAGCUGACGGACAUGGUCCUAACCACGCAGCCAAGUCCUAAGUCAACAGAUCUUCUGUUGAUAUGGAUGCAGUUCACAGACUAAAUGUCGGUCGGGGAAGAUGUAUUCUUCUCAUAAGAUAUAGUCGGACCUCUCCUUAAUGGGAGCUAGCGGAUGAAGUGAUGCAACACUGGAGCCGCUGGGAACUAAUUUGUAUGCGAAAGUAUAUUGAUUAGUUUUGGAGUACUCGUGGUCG; details: 37 °C;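 also: selection with 25 µg/mL kanamycin versus none on LB agar overnight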
Property Label: self-splicing fitness (ln)

>>> meas_value("AUAUAGCAAUAUUACGAACC")
0.205
>>> meas_value("CCCCAGCAAUAUUACGACGC")
-3.22
>>> meas_value("GUGCAGCAAUAUUACGGUGC")
-2.31
>>> meas_value("ACGGAGCAAUAUUACGUCUA")
-1.3

----------
assay: self-splicing fitness, log relative to wild type (ln ratio); higher = more splicing; Tetrahymena group I intron in knt gene, E. coli kanamycin selection, DiMSum; sequences stand for … in CUCUCU…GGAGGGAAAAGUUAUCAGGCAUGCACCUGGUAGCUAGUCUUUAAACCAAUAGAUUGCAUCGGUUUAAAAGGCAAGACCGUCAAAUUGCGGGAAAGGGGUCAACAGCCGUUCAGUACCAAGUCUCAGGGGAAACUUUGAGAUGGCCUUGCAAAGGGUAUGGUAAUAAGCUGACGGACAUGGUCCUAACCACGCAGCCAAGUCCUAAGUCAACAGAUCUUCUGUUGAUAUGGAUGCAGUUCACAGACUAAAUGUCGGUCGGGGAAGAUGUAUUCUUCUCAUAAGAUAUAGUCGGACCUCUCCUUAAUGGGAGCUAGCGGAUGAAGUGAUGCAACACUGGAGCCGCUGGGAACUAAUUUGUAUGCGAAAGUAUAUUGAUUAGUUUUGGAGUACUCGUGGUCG; conditions: 30 °C
Property Label: self-splicing fitness (ln)

>>> meas_value("UCGUAGCAAUAUUACGUAUA")
-2.92
>>> meas_value("CGGCAGCAAUAUUACGCCAC")
-2.97
>>> meas_value("UAACAGCAAUAUUACGUCAC")
-2.97
>>> meas_value("ACUCAGCAAUAUUACGCCAU")
-3.02

----------
self-splicing fitness (ln) by entry:
experiment: self-splicing fitness, log relative to wild type (ln ratio); higher = more splicing; Tetrahymena group I intron in knt gene, E. coli kanamycin selection, DiMSum; sequences stand for … in CUCUCU…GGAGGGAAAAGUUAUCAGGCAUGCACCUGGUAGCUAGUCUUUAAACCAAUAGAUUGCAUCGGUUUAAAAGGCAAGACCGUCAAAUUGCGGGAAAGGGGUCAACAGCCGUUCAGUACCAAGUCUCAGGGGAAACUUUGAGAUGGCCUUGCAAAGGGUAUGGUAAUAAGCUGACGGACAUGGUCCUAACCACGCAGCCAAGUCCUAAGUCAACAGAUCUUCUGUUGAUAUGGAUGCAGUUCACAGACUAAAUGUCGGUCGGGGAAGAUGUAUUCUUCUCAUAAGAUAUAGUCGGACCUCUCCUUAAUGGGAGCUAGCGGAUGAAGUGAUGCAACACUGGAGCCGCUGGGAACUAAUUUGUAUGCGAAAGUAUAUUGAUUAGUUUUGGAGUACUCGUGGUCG; details: 37 °C
Property Label: self-splicing fitness (ln)

>>> meas_value("GAAGAGCAAUAUUACGGGUG")
-2.01
>>> meas_value("AAUAAGCAAUAUUACGCAGU")
-2.04
>>> meas_value("UUUCAGCAAUAUUACGUGCU")
-2

All values here come from the supplement of paper PMC7877785.
